Test system: K562
Test: NCI tumour cell line growth inhibition, 48 h
Active and inactive are the calls of the source. No stated cut-off is given here; in the data, active = GI50 up to about 1.1 µM and inactive = higher. Starred links: 1 amine or outer side, 2 acyl side, 3 side chain; linkers in the order of their positions; H or OH if unused. Residues, ends and D or L forms follow the SMILES beside them. *: point of attachment. γGlu = O=C(O)[CH](CCC(=O)[*:2])N[*:1]; NHOH = ON*
Listed molecules paired with reported GI50

COP(=O)(/C=C/c1cc(C(=O)OCc2ccccc2)n(S(=O)(=O)c2ccccc2)c1)OC | > 100 µM (inactive)
C/C(CC(=O)Nc1ccc(C)c(C)c1)=N\NC(N)=O | > 100 µM (inactive)

query: Param readout = GI50; param system = K562; param query = CSc1nsc(-c2ccccc2)[s+]1.[O-][Cl+3]([O-])([O-])[O-] ; response: value
result: 64.1 µM (inactive)

query: Param readout = GI50; param system = K562; param query = CCOC(=O)CNC(=O)C(CCC(=O)NO)NC(=O)CCC(N)C(=O)O (stereo not given) (γGlu-Glu(NHOH)-Gly-OEt; configuration not given here) ; response: value
result: > 100 µM (inactive)

query: Param readout = GI50; param system = K562; param query = Cc1ccc(NC(=O)CSc2nnc(Cc3ccccc3)o2)c(C)c1 ; response: value
result: > 100 µM (inactive)

query: Param readout = GI50; param system = K562; param query = COC(=O)C1C(O)C(C(=O)OC)C(C)N(C)C1C (stereo not given) ; response: value
result: > 100 µM (inactive)

query: Param readout = GI50; param system = K562; param query = CCCC/C=C1\CCC(CN2CCCC2)C1=O (stereo not given) ; response: value
result: 2.71 µM (inactive)

query: Param readout = GI50; param system = K562; param query = N/N=C(\C(=O)Nc1ccc(Cl)cc1Cl)C(c1cnc2ccccc2n1)[N+](=O)[O-] (stereo not given) ; response: value
result: > 100 µM (inactive)

query: Param readout = GI50; param system = K562; param query = O=S1(=O)OCCOS(=O)(=O)C1(I)I ; response: value
result: 29.5 µM (inactive)

query: Param readout = GI50; param system = K562; param query = COc1cc(C2C(Cl)C(=O)N2c2c(C)n(C)n(-c3ccccc3)c2=O)ccc1O (stereo not given) ; response: value
result: 26.6 µM (inactive)

The measured values listed here are drawn from ChEMBL document CHEMBL1201862.
